Target: E3 ubiquitin-protein ligase UHRF1 (Homo sapiens) (UniProt Q96T88)
Sequence (Q96T88 whole entry, looked up, the tested form may be a part): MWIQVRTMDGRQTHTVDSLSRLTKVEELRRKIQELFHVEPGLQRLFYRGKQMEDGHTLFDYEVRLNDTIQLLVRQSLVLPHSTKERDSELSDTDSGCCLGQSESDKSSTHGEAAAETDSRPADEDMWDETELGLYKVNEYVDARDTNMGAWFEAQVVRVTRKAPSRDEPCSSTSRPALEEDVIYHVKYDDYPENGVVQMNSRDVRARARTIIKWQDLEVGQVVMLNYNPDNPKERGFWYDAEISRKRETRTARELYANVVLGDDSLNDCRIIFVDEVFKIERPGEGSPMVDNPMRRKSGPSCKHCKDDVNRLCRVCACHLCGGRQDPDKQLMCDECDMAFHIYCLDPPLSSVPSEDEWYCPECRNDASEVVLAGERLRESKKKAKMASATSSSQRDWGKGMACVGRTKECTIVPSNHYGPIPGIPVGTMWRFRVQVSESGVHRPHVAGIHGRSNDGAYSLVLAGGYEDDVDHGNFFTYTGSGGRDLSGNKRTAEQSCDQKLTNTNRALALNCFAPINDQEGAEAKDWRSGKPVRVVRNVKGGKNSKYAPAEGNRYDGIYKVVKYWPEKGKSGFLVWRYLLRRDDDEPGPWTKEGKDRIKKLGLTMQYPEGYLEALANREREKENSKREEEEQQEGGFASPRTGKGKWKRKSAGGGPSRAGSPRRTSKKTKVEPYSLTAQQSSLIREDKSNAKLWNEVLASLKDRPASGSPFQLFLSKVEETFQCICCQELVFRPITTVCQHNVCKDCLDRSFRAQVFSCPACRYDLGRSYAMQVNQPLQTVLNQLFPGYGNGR
Assay: blockers of UHRF1 binding to methyl-oligo – biochemical, TR-FRET, human UHRF1, single concentration, counter-screen for MBD2 inhibitor project, primary screen (AID 687016);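 note: UHRF1 SRA domain binding a hemimethylated CpG hairpin DNA probe; 0% = median of test compound wells and 100% = reference inhibitor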
Conditions: UHRF1 binding to methylated oligo, at 4.4 µM, active compounds read high
Screen size: about 370,000 compounds; about 2,800 (0.76%) were called active. What follows is part of a selection rich in actives, with near analogues and random picks from the rest.
Readout label: inhibition (%)
Give bare numbers, in %.

Please review the entries below; each comes with its answer.
{"columns": ["Molecule", "System", "Unit symbol", "inhibition"],
 "data": [
  ["COC(=O)C[C@@H]1CC[C@H]2[C@@H](COc3ccc(NS(=O)(=O)CC(F)(F)F)cc3C(=O)N2C)O1", "E3 ubiquitin-protein ligase UHRF1 (Homo sapiens) (UniProt Q96T88)", "%", 1.54],
  ["N#Cc1ccccc1CN1C(=O)S/C(=C/c2cccn2-c2cccc(C(=O)O)c2)C1=O", "E3 ubiquitin-protein ligase UHRF1 (Homo sapiens) (UniProt Q96T88)", "%", 21.4],
  ["O=C1CC[C@@]23CCCN2C(=O)CCC[C@H]3[C@H]1Cc1ccccc1", "E3 ubiquitin-protein ligase UHRF1 (Homo sapiens) (UniProt Q96T88)", "%", 0.21],
  ["CCOC(=O)N1CCN(C(=O)C[C@H]2C[C@@]3(C(=O)OC)C(=C[C@H](C(C)(C)C)O[C@@H]3C)N(Cc3ccc(Cl)cc3Cl)C2=O)CC1", "E3 ubiquitin-protein ligase UHRF1 (Homo sapiens) (UniProt Q96T88)", "%", 0.78],
  ["O=C1NC(=O)C(c2ccc(Cl)cc2)N1 (stereo not given)", "E3 ubiquitin-protein ligase UHRF1 (Homo sapiens) (UniProt Q96T88)", "%", 2.25]
]}

For every record below, what is its inhibition?
1. CC(CN1CCCCC1)c1ccccc1 (stereo not given)
2. Cc1ccc(COC(=O)CN2C(=O)NC3(CCCC3)C2=O)cc1
3. CC(CN1CCOCC1)c1ccccc1 (stereo not given)
4. O=C(CN1C(=O)NC2(CCCC2)C1=O)OCCOc1ccc(F)cc1
5. CCCOc1ccc(Oc2c(Cl)cnn(Cc3cccc4ccccc34)c2=O)cc1

[-1.54, 42.5, 55.2, 0.11, 2.95]
